- test-target: PDE3 (Homo sapiens, UniProt Q14432)
- Sequence (Q14432 whole entry): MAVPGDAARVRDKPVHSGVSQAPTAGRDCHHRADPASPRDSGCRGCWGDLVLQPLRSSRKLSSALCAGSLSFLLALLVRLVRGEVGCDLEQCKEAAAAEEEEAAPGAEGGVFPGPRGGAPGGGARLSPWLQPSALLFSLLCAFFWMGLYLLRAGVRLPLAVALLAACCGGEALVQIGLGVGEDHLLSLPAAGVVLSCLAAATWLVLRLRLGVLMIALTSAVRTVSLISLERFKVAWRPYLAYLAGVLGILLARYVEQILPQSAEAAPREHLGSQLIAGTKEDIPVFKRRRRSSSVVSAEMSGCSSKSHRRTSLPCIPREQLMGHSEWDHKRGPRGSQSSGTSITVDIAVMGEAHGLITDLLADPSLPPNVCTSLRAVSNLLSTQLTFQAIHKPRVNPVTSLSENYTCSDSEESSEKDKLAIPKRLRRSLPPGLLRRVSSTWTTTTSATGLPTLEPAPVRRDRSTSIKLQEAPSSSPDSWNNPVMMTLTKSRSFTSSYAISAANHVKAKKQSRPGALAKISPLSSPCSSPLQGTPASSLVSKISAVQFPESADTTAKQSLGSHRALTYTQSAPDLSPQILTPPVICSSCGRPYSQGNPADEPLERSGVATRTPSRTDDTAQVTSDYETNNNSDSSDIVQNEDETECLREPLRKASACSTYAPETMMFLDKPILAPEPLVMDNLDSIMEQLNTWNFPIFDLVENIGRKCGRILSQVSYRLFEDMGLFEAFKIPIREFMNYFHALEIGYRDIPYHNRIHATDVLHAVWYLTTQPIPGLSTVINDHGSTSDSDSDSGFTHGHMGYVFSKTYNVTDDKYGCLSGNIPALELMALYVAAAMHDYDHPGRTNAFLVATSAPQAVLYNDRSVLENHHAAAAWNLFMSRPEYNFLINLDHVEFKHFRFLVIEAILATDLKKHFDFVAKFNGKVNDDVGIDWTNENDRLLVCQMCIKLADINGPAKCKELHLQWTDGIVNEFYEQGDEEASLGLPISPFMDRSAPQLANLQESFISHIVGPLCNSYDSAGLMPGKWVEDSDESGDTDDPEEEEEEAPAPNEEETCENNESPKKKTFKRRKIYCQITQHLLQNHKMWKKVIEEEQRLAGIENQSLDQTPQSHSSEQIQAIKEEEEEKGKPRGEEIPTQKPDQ
- run-description: Inhibition of PDE isoenzymes: PDE3 (cGMP-inhibited), homogenates of human blood platelets
- Type: biochemical
- measurement-context: read-out: -log IC50, PDE3 (converted)
- Method: The PDE activity was determined according to Thompson et al. (1) with some modifications (2). […] The radioactivity of the eluate was measured and corrected by the corresponding blank values. […] The IC50 values were determined from the concentration-inhibition curves by nonlinear regression using the GraphPad InPlot™ program (GraphPad Software Inc., Philadelphia, U.S.A.). […]
Where a name gives a salt, the structure may show the parent alone.
endpoint-name: IC50 (nM)
Numeric answer only, unit nM assumed.

As a guide, the following entries are already answered.
CCCCN(CCCC)C(=O)c1ccc(C2=N[C@H]3CCN(C)C[C@H]3c3cc(OCC)c(OCC)cc32)cc1.Cl (single isomer, unassigned) [Compound 17, hydrochloride] = 417
CCOc1cc2c(cc1OCC)[C@H]1CN(C)CC[C@H]1N=C2c1ccc(C(=O)N(C(C)C)C(C)C)cc1 (single isomer, unassigned) [Compound 11, hydrochloride] = 58.9
CCOc1cc2c(cc1OCC)[C@@H]1CN(C)CC[C@@H]1N=C2c1ccc(C(=O)OC(C)C)cc1.Cl (single isomer, unassigned) [Compound 5, hydrochloride] = 70.8
COc1cc2c(cc1OC)[C@H]1CN(C)CC[C@H]1N=C2c1ccc(C(=O)OC(C)C)cc1 (single isomer, unassigned) [Compound 3, hydrochloride] = 72.4

Lab book: IC50 of CCOc1cc2c(cc1OC)C(c1ccc(C(=O)N3CCCCCC3)cc1)=N[C@H]1CCN(C)C[C@@H]21 (single isomer, unassigned) [Compound 24] noted as 22.9

The measured IC50 associated with CCOc1cc2c(cc1OCC)[C@@H]1CN(C)CC[C@@H]1N=C2c1ccc(C(=O)OC)cc1.Cl (single isomer, unassigned) [Compound 4, hydrochloride] reads 214

Record CCOc1cc2c(cc1OCC)[C@H]1CN(C)CC[C@H]1N=C2c1ccc(C(=O)N(C(C)C)C2CCCCC2)cc1 (single isomer, unassigned) [Compound 16, hydrochloride] , field IC50: 186

GET /value?item= CCOc1cc2c(cc1OC)C(c1ccc(C(=O)N(C(C)C)C(C)C)cc1)=N[C@H]1CCN(C)C[C@@H]21.Cl (single isomer, unassigned) [Compound 19, hydrochloride] &field=IC50 returns 27.5

Briefly, IC50 measured for CCOc1cc2c(cc1OCC)[C@@H]1CN(C)CC[C@@H]1N=C2c1ccc(C(=O)N2CCCCCC2)cc1.Cl (single isomer, unassigned) [Compound 18, hydrochloride] : 182

Entry CCCCN(CCCC)C(=O)c1ccc(C2=N[C@H]3CCN(C)C[C@H]3c3cc(OCC)c(OC)cc32)cc1.Cl (single isomer, unassigned) [Compound 23, hydrochloride] ; IC50 = 229

IC50 recorded for this compound, CCOc1cc2c(cc1OC)C(c1ccc(C(=O)OC)cc1)=N[C@H]1CCN(C)C[C@@H]21.Cl (single isomer, unassigned) [Compound 21, hydrochloride] , is 457

----------
- test-target: PDE4
- run-description: Inhibition of PDE isoenzymes: PDE4 (cAMP-specific), cytosol of human polymorphonuclear leukocytes
- Assay type: biochemical
- measurement-context: PDE4, cytosol of human PMNL, cAMP as substrate, motapizone (1 μM) present
Where a name gives a salt, the structure may show the parent alone.
endpoint-name: -log IC50, PDE4

CCCCN(CCCC)C(=O)c1ccc(C2=N[C@H]3CCN(C)C[C@H]3c3cc(OCC)c(OC)cc32)cc1.Cl (single isomer, unassigned) = 8.56
CCOc1cc2c(cc1OC)C(c1ccc(C(=O)N(C(C)C)C(C)C)cc1)=N[C@H]1CCN(C)C[C@@H]21.Cl (single isomer, unassigned) = 8.18
CCOc1cc2c(cc1OCC)[C@H]1CN(C)CC[C@H]1N=C2c1ccc(C(=O)N(C(C)C)C(C)C)cc1 (single isomer, unassigned) [Compound 11, hydrochloride] = 7.85
CCOc1cc2c(cc1OCC)[C@H]1CN(C)CC[C@H]1N=C2c1ccc(C(=O)N(C(C)C)C2CCCCC2)cc1 (single isomer, unassigned) [Compound 16, hydrochloride] = 7.96
CCOc1cc2c(cc1OC)C(c1ccc(C(=O)OC)cc1)=N[C@H]1CCN(C)C[C@@H]21.Cl (single isomer, unassigned) = 7.67

Lab note: next compound to report on.
Record CCOc1cc2c(cc1OCC)[C@@H]1CN(C)CC[C@@H]1N=C2c1ccc(C(=O)OC)cc1.Cl (single isomer, unassigned) . Reported -log IC50, PDE4: 7.54
